TARGET: 5-hydroxytryptamine receptor 1A (Homo sapiens)
Sequence (P08908 whole entry): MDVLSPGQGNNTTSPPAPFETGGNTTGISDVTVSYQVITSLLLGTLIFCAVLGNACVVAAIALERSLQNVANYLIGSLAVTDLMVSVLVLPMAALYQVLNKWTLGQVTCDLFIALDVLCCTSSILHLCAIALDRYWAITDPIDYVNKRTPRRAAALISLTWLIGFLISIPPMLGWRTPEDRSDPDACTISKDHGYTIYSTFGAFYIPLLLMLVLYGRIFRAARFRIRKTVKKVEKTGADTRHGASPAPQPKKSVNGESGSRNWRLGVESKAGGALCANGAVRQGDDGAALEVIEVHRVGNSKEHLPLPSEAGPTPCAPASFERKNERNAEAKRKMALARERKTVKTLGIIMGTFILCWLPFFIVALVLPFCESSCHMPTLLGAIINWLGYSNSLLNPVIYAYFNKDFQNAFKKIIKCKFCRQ
PROTOCOL DESCRIPTION: Displacement of [3H]OH-DPAT from recombinant human 5-HT1A receptor expressed in human HEK293 cells at 10 uM relative to control
Type: cell-based
Form field: inhibition (one value per entry).
ATTRIBUTE MEASURED: inhibition

>>> print(df.to_string())
                                   compound  value_measured
0  C[C@H]1CN(CC[C@H]2CC[C@H](NC(=O)N3CCOCC3)CC2)CCc2ccc(Cl)cc21           86.1%
1  C[C@H]1CN(CC[C@H]2CC[C@H](NC(=O)C3CCCCC3)CC2)CCc2ccc(Cl)cc21           69.9%
2  CCN(CC)C(=O)N[C@H]1CC[C@H](CCN2CCc3ccc(Cl)cc3[C@@H](C)C2)CC1           75.2%
3  CC1CN(CC[C@H]2CC[C@H](NC(=O)N(C)C)CC2)CCc2ccc(Cl)cc21 (mixture of isomers)           26.9%
4  C[C@@H]1CN(CC[C@H]2CC[C@H](NC(=O)N(C)C)CC2)CCc2ccc(Cl)cc21           83.9%
5  CCCC(=O)N[C@H]1CC[C@H](CCN2CCc3ccc(Cl)cc3[C@@H](C)C2)CC1           81.3%
6  C[C@H]1CN(CC[C@H]2CC[C@H](N3C(=O)c4ccccc4C3=O)CC2)CCc2ccc(Cl)cc21           82.6%

---

TARGET: 5-hydroxytryptamine receptor 1A (Homo sapiens)
PROTOCOL DESCRIPTION: Displacement of [3H]OH-DPAT from recombinant human 5-HT1A receptor expressed in human HEK293 cells
pKi: −log10 of the molar value.
ATTRIBUTE MEASURED: pKi

                                smiles_data  value_measured
0  C[C@H]1CN(CC[C@H]2CC[C@H](N3C(=O)[C@H]4CCCC[C@H]4C3=O)CC2)CCc2ccc(Cl)cc21            8.18
1  CCN(C)C(=O)N[C@H]1CC[C@H](CCN2CCc3ccc(Cl)cc3[C@@H](C)C2)CC1            7.44
2  C[C@H]1CN(CC[C@H]2CC[C@H](N3C(=O)CC4(CCCC4)CC3=O)CC2)CCc2ccc(Cl)cc21            8.37
3  C[C@H]1CN(CC[C@H]2CC[C@H](NC(=O)c3ccco3)CC2)CCc2ccc(Cl)cc21            7.97

---

Form field: pKi (one value per entry).
TARGET: D(2) dopamine receptor (Homo sapiens)
Sequence (P14416 whole entry): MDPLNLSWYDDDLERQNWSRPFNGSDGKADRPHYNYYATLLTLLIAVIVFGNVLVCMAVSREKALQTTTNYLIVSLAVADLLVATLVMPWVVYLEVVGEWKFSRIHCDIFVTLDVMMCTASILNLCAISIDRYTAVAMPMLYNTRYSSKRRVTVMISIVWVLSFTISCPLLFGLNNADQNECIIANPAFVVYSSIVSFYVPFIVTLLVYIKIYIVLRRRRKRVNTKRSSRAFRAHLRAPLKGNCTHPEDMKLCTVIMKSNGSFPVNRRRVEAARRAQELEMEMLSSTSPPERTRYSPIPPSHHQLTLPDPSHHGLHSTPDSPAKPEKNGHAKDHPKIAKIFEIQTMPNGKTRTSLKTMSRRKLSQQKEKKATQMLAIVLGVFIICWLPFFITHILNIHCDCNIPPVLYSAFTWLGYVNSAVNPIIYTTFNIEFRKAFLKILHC
PROTOCOL DESCRIPTION: Displacement of [3H]-spiperone from recombinant human D2L receptor expressed in CHO cells
Type: cell-based
pKi: −log10 of the molar value.
ATTRIBUTE MEASURED: pKi

>>> df
                                smiles_data  value_measured
0  CCN(C)C(=O)N[C@H]1CC[C@H](CCN2CCc3ccc(Cl)cc3[C@@H](C)C2)CC1            7.62
1  C[C@H]1CN(CC[C@H]2CC[C@H](N3C(=O)[C@@H]4[C@@H]5CC[C@@H](C5)[C@@H]4C3=O)CC2)CCc2ccc(Cl)cc21            7.50
2  C[C@H]1CN(CC[C@H]2CC[C@H](N3C(=O)c4ccccc4C3=O)CC2)CCc2ccc(Cl)cc21            8.24
